# Measured on: T1, CD134 expressed on the cell surface of HT1080_OX40 cells (human, UniProt P43489 29-277)
# T1 sequence (looked up): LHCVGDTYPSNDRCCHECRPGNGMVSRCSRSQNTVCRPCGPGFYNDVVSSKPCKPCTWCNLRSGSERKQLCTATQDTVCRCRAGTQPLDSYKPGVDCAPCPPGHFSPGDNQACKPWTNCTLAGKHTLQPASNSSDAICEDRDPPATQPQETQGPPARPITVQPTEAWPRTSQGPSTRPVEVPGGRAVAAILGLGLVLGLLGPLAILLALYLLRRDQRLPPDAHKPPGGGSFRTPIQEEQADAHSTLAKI
# Assay explanation: cell-based or functional assay; further: test concentration or dose not given here
Observed property: Functional assay IL-8 (abs. corr.)
Express your answer in abs. corr., writing the number without its unit.

// worked examples, Functional assay IL-8 included
>>> recorded_number("P018.S.12.A.B05 (antibody, V domains shown, V regions on human Ig constant parts; also called AB134_59) VH: QQQLVESGGGLVKPGASLTLTCKASGFFFSGSYYMCWVRQAPGKGLEWIACIYTGSDDDTNYASWAKGRFTISKTSSTTVTLQMTSLTAADTATYFCARRNYDTDWGGDLWGPGTLVTVSS VL: AVVLTQTPASVEAAVGGTVTIKCQASQSIGSSLAWYQQKPGQRPKLLIYYASNLASGVSSRFKGSGSGTQFTLTISDLESADAATYYCQCTYTSSDYLDAFGGGTEVVVK")
0.96
>>> recorded_number("P018.S.12.A.E05 (antibody, V domains shown, V regions on human Ig constant parts; also called AB134_76) VH: QSVEESGGRLVTPGGSLTLTCTASGFDLSSYATSWVRQAPGKGLEWIGIIYGSGSTTYASWVKGQFTISKSSSTTVDLKMTSLTTEDTATYFCARGLVASTDNYNLWGPGTLVTVSS VL: AAVLTQTPSPVSVAVGGTVTINCQASQSVYNNNYLAWFQQKPGQPPKLLIYLASILASGVPSRFKGSGSGTQFTLTINGVQSDDAATYYCLGDVGGGERVFGGGTEVVVK")
0.132

Now consider the entry below.
Request: State, in one line, measured Functional assay IL-8 of P018.S.11.A.C04 (antibody, V domains shown, V regions on human Ig constant parts; also called AB134_29) VH: QSVEESGGRLVTPGTPLTLTCTVSGFSLGSYPMIWVRQAPGKGLEWIGYIDPGRGTTLYASWARGLFTISKTSTTVDLAMTSPTAADTATYFCARSYPGDGAGDLWGQGTLVTVSS VL: DVVMTQTPASVSEPVGGTVTIKCQASESISNYFSWYQQKPGQPPKLLIYGASTLESGVSSRFKGSGSGTDFTLTISDLESADAATYYCQCTYYGSGDVGGAFGGGTEVVVK
Response: 0.253
